Each recorded value in this set is attributed to patent US6380198B1.

# targetOrTestSystem: σ-1 receptors (Oryctolagus cuniculus, UniProt G1SD54)
# Construct: cell membranes obtained from the irido-ciliary body complex; from tissue; host or cells: rabbit irido-ciliary body, P2 membrane fraction
# Sequence (G1SD54 1-223): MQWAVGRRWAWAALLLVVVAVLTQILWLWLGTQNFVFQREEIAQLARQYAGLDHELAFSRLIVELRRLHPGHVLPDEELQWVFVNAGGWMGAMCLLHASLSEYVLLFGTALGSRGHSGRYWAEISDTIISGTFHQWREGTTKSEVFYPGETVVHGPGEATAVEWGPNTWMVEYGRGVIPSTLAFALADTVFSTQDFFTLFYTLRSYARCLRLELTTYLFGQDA
# protocolDescription: Inhibition of 3H(+)-N-allyl-nor-methazocine binding to irido-ciliary body membranes
# Set-up: species or system rabbit (New Zealand albino)
# conditionDescription: rabbit irido-ciliary body P2 membranes, 300 μg protein, 37° C., 150 minutes, duplicate
pIC50: −log10 of the molar value.
measurementKind: pIC50

Fill blank: measured pIC50 of the molecule COC(=O)C1=C(C)NC(C)=C(C(=O)OC)C1c1ccccc1[N+](=O)[O-] is ____.
< 5.00

Fill blank: measured pIC50 of the molecule COCCOC(=O)C1=C(C)NC(C)=C(C(=O)OC(C)C)C1c1cccc([N+](=O)[O-])c1 (stereo not drawn) is ____.
< 5.00

Fill blank: measured pIC50 of the molecule COc1ccc([C@@H]2Sc3ccccc3N(CCN(C)C)C(=O)[C@@H]2OC(C)=O)cc1 is ____.
< 5.00
